- System: MALME-3M melanoma
- protocol-description: NCI tumour cell line growth inhibition, 48 h
# TGI annotations

[
  {
    "compound": "CC(C)/C(=N\\[N+](C)(C)C)c1ccccc1",
    "system-under-test": "MALME-3M melanoma",
    "TGI": "> 100 µM"
  },
  {
    "compound": "CCOC(=O)c1c(N2CCCC2)ncn(C)c1=S",
    "system-under-test": "MALME-3M melanoma",
    "TGI": "> 100 µM"
  }
]

The compound O=S(=O)(O)Oc1cc2c(c(OS(=O)(=O)O)c1)C[C@H](OS(=O)(=O)O)[C@@H](c1ccc(OS(=O)(=O)O)c(OS(=O)(=O)O)c1)O2 , when measured on MALME-3M melanoma, yielded TGI of > 100 µM

The compound CNC(=O)OC(COC)CN1CCN(c2ccccc2C)CC1 (stereo not given) , when measured on MALME-3M melanoma, yielded TGI of > 10 µM

The compound CSc1c(CC(=O)Nc2ccc(Cl)cc2)n(Cc2ccccc2)c2ccccc12 , when measured on MALME-3M melanoma, yielded TGI of > 100 µM

###

- Tested on: SF-539 CNS
- protocol-description: NCI tumour cell line growth inhibition, 48 h; in the data active = GI50 below about 0.43 µM; inactive = the rest
Assign a class; possible classes are yes (1) = active, no (0) = inactive

Here are 3 compounds together with their reported answers.
[
  {
    "compound": "O=c1oc2ccc(-c3ccc(F)cc3F)cc2c(=O)n1-c1ccc(Cl)c(C(F)(F)F)c1",
    "assigned-category": "no (0)"
  },
  {
    "compound": "COc1cccc(C2C3=C(COC3=O)N(CCO)c3cc4c(cc32)OCO4)c1 (stereo unspecified)",
    "assigned-category": "yes (1)"
  },
  {
    "compound": "COc1cccc(/C(C)=N/NC(=O)CSc2nc3ccccc3c(=O)n2CCc2ccc(S(N)(=O)=O)cc2)c1",
    "assigned-category": "no (0)"
  }
]

Please let me know the test result on file for O=C(NCc1ccco1)c1cccc(NC2=C(Cl)C(=O)N(Cc3ccccc3)C2=O)c1 . no (0)

Please let me know the test result on file for O=S(=O)(Nc1ccc(F)c(Cl)c1)c1ccc(-c2cnc(C3CC3)o2)cc1 . yes (1)

Please let me know the test result on file for COc1cc(/C=C/c2cc(/C=C/c3ccc(O)c(OC)c3)n(C(=O)Nc3ccc(Cl)cc3)n2)ccc1O . no (0)

###

# TGI annotations
- Test system: SNB-19 CNS
- protocol-description: NCI tumour cell line growth inhibition, 48 h

Below are worked cases with known answers.
[
  {
    "molecule": "C#CCN(C(=O)C(F)(F)F)c1ccc(C(=O)c2ccc(N(CC#C)C(=O)C(F)(F)F)cc2)cc1",
    "TGI": "> 100 µM"
  },
  {
    "molecule": "COc1ccccc1NCc1cccc2c(=O)c3ccc(Cl)cc3oc12",
    "TGI": "> 100 µM"
  },
  {
    "molecule": "CNC(=O)OC(COC)CN1CCN(c2ccccc2C)CC1 (stereo not drawn)",
    "TGI": "> 10 µM"
  },
  {
    "molecule": "NC(Cc1ncccn1)C(=O)O (stereo not drawn)",
    "TGI": "> 100 µM"
  },
  {
    "molecule": "CC(CN(C)C)C(=O)c1ccccc1 (stereo not drawn)",
    "TGI": "> 100 µM"
  }
]

Kindly note the recorded TGI for Clc1ccccc1C(Nc1ncccn1)Nc1ncccn1 , which is > 100 µM

Kindly note the recorded TGI for N#C/C(N)=C(\C#N)N=CNc1ccc(N)cc1 , which is > 100 µM

Kindly note the recorded TGI for O=S(=O)(/N=C(\NO)Nc1ccc(Cl)cc1)c1ccccc1 , which is > 89.3 µM

Numbers sourced from PubChem BioAssay (NCI).
